Biological target: Adenosine receptor A2a (Rattus norvegicus)
Sequence (P30543 whole entry): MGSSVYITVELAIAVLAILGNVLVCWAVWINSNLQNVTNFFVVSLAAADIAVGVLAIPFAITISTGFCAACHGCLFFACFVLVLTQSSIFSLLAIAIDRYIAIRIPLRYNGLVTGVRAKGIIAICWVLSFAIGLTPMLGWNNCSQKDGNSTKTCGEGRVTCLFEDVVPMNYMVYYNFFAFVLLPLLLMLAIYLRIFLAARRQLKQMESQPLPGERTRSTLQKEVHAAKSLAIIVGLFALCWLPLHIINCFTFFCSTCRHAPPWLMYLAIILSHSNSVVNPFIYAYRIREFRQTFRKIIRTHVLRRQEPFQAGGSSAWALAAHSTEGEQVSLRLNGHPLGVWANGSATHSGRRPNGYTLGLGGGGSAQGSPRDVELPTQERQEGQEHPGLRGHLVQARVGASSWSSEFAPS
ATTRIBUTE_MEASURED: Ki

Can you look up the measured Ki of `Cn1c(=O)c2[nH]c(-c3ccccc3)nc2n(C)c1=O` for me?
> 10 µM
